# credit: the Human Domainome abundance scans (Beltran et al. 2025)

B1: Protein S100-G, residues 1 to 79; numbered along this chain, P02633 (parent)
chain: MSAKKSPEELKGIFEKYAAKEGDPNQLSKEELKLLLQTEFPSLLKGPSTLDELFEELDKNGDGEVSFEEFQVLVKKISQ

# Variants of: B1
# testDetails: abundance fitness (aPCA) (normalised: wild type 0, dead -1); higher = more abundant; growth selection in yeast, the domain comes from the species named
# cond: Bos taurus
endpointLabel: abundance fitness

[[record]]
chainsequence = "MSAKKSPEELKGIFEKYAAKEGDPNQLSKEELKLLLQTEFPSLLKGPSTLDELFEELDKNGDGEVSLEEFQVLVKKISQ"
endpointlabel = "abundance fitness"
obsvalue = -0.059

[[record]]
chainsequence = "MSAKKSPEELKGIFEKYAAKEGDPNQLSKEELKLLLQTEFPSLLKGPSTLDELFEELDKNGDGEVSSEEFQVLVKKISQ"
endpointlabel = "abundance fitness"
obsvalue = -0.097

[[record]]
chainsequence = "MSAKKSPEELKGIFEKYAAKEGQPNQLSKEELKLLLQTEFPSLLKGPSTLDELFEELDKNGDGEVSFEEFQVLVKKISQ"
endpointlabel = "abundance fitness"
obsvalue = -0.046

[[record]]
chainsequence = "MSAKKSPEELKGIFEKYAAKEGDPNQLSKEELKLLLQTEFPSLLKLPSTLDELFEELDKNGDGEVSFEEFQVLVKKISQ"
endpointlabel = "abundance fitness"
obsvalue = 0.02

[[record]]
chainsequence = "MSAKKSPEELKGIFEKYAAKEGDPNQLSKEELKLLLQTEFPSLLKGPSTLDELFEELDKNGDGAVSFEEFQVLVKKISQ"
endpointlabel = "abundance fitness"
obsvalue = 0.01

[[record]]
chainsequence = "MSAKKSPEELKGIFEKYAAKEGDPNQLSKEELKLLLQTEFPSLTKGPSTLDELFEELDKNGDGEVSFEEFQVLVKKISQ"
endpointlabel = "abundance fitness"
obsvalue = 0.035

[[record]]
chainsequence = "MSAKKSPEELKGITEKYAAKEGDPNQLSKEELKLLLQTEFPSLLKGPSTLDELFEELDKNGDGEVSFEEFQVLVKKISQ"
endpointlabel = "abundance fitness"
obsvalue = -1.33

[[record]]
chainsequence = "MSAKKSPEELKDIFEKYAAKEGDPNQLSKEELKLLLQTEFPSLLKGPSTLDELFEELDKNGDGEVSFEEFQVLVKKISQ"
endpointlabel = "abundance fitness"
obsvalue = 0.067

[[record]]
chainsequence = "MSAKKSPEELKGIFEKYAAKEGDPNQLSKEELKLLLQTEFPSLLKGPSTLDELFEEADKNGDGEVSFEEFQVLVKKISQ"
endpointlabel = "abundance fitness"
obsvalue = 0.079

[[record]]
chainsequence = "MSAKKSPEELKGIFEKYAAKEGDPNQLSKEELKLLLQTEFPSLLKGPSTLDELFEELDKNGDAEVSFEEFQVLVKKISQ"
endpointlabel = "abundance fitness"
obsvalue = -0.009

[[record]]
chainsequence = "MSAKKSPEELKGIFEKYAAKEGDPNQLSKEELKLLLQTEFPSLLKGPSTLDELFEELDKNVDGEVSFEEFQVLVKKISQ"
endpointlabel = "abundance fitness"
obsvalue = -0.021

[[record]]
chainsequence = "MSAKKSPEELKGIFEKYAAKEGDPNQLSKEELKLLLQTEFPSYLKGPSTLDELFEELDKNGDGEVSFEEFQVLVKKISQ"
endpointlabel = "abundance fitness"
obsvalue = 0.015

[[record]]
chainsequence = "MSAKKSPEELKGIFVKYAAKEGDPNQLSKEELKLLLQTEFPSLLKGPSTLDELFEELDKNGDGEVSFEEFQVLVKKISQ"
endpointlabel = "abundance fitness"
obsvalue = -0.044

[[record]]
chainsequence = "MSAKKSPEELKGIFEKYAFKEGDPNQLSKEELKLLLQTEFPSLLKGPSTLDELFEELDKNGDGEVSFEEFQVLVKKISQ"
endpointlabel = "abundance fitness"
obsvalue = -0.057

[[record]]
chainsequence = "MSAKKSPEELKGIFEKYAAKEGDPNQLSKFELKLLLQTEFPSLLKGPSTLDELFEELDKNGDGEVSFEEFQVLVKKISQ"
endpointlabel = "abundance fitness"
obsvalue = -0.006

[[record]]
chainsequence = "MSAKKSPEELKGIFEKYAAKEGDPPQLSKEELKLLLQTEFPSLLKGPSTLDELFEELDKNGDGEVSFEEFQVLVKKISQ"
endpointlabel = "abundance fitness"
obsvalue = -0.077

[[record]]
chainsequence = "MSAKKSPEELKGIFEKYAAKEGDPNQLSKEELKLLLQTEFPSLLKGPSTLDELFEELDKNGDGEVSFEEFQVLVKGISQ"
endpointlabel = "abundance fitness"
obsvalue = 0.011

[[record]]
chainsequence = "MSAKKSPEELKGIFEKYAAKEGDPNQLSKEELKLLLQTEFPSLLKGPSTLDELFEELDKNWDGEVSFEEFQVLVKKISQ"
endpointlabel = "abundance fitness"
obsvalue = -0.024

[[record]]
chainsequence = "MSAKKSPEELKGIFEKYAAKEGDPNQLVKEELKLLLQTEFPSLLKGPSTLDELFEELDKNGDGEVSFEEFQVLVKKISQ"
endpointlabel = "abundance fitness"
obsvalue = -0.156

[[record]]
chainsequence = "MSAKKSPEELKGIFEKYAAKEGDPNQLSKEELKLLLQTEFPSLLKGPSTLDELFEELDKNGDGEVSFENFQVLVKKISQ"
endpointlabel = "abundance fitness"
obsvalue = -0.215

[[record]]
chainsequence = "MSAKKSPEELKGIFEKYAAKEGDPNQLSKEELKLLLQTEFPSLLKGPSTLDELFEELDKNGDGEVIFEEFQVLVKKISQ"
endpointlabel = "abundance fitness"
obsvalue = -0.101

[[record]]
chainsequence = "MSAKKSPEELKGIFEKYAAKEGVPNQLSKEELKLLLQTEFPSLLKGPSTLDELFEELDKNGDGEVSFEEFQVLVKKISQ"
endpointlabel = "abundance fitness"
obsvalue = -0.065

[[record]]
chainsequence = "MSPKKSPEELKGIFEKYAAKEGDPNQLSKEELKLLLQTEFPSLLKGPSTLDELFEELDKNGDGEVSFEEFQVLVKKISQ"
endpointlabel = "abundance fitness"
obsvalue = -0.137

[[record]]
chainsequence = "MSAKKSPEELKGIFYKYAAKEGDPNQLSKEELKLLLQTEFPSLLKGPSTLDELFEELDKNGDGEVSFEEFQVLVKKISQ"
endpointlabel = "abundance fitness"
obsvalue = 0.077

[[record]]
chainsequence = "MSAKKSPEELKGIFEKYAPKEGDPNQLSKEELKLLLQTEFPSLLKGPSTLDELFEELDKNGDGEVSFEEFQVLVKKISQ"
endpointlabel = "abundance fitness"
obsvalue = -0.132

[[record]]
chainsequence = "MSAKKSPEELKGIFEKYAAKEGDPNQLSKEELKLLLQTEFPSLLKGPDTLDELFEELDKNGDGEVSFEEFQVLVKKISQ"
endpointlabel = "abundance fitness"
obsvalue = -0.138

[[record]]
chainsequence = "MSAKKSPEELKGIFEKYAAKEGDPNQLSKEELKLLLQTEFPSLLKGPSTLDELFEELDKNGDGEVSFEEFQVLVSKISQ"
endpointlabel = "abundance fitness"
obsvalue = -0.023

[[record]]
chainsequence = "MSAKKSPEELKGIFEKYAAKEGDPNQLSKEELKLLLQTEFPSALKGPSTLDELFEELDKNGDGEVSFEEFQVLVKKISQ"
endpointlabel = "abundance fitness"
obsvalue = 0.013

[[record]]
chainsequence = "MSAKKSPEELKGIFEKYAAKEGDPNQLSKEELKLLLQTEFPSLLKGPSTLDELFEELDKNGDEEVSFEEFQVLVKKISQ"
endpointlabel = "abundance fitness"
obsvalue = 0.118

[[record]]
chainsequence = "MSAKKSPEELKGIFEKYAAKEGDPNQLSCEELKLLLQTEFPSLLKGPSTLDELFEELDKNGDGEVSFEEFQVLVKKISQ"
endpointlabel = "abundance fitness"
obsvalue = 0.002

[[record]]
chainsequence = "MSAKKSPEELKGIFEKYAAKEGDPNQLSKEELKLLLQTEFPSLLKGPSTLDELFEELDKNGDGEVSFEEFQVLMKKISQ"
endpointlabel = "abundance fitness"
obsvalue = 0.016

[[record]]
chainsequence = "MSAKKSPRELKGIFEKYAAKEGDPNQLSKEELKLLLQTEFPSLLKGPSTLDELFEELDKNGDGEVSFEEFQVLVKKISQ"
endpointlabel = "abundance fitness"
obsvalue = -0.048

[[record]]
chainsequence = "MSAKKSPEELKGIFEKYAAKEGDPNQLSKEELKLLLQTEFPSLLKGPSTADELFEELDKNGDGEVSFEEFQVLVKKISQ"
endpointlabel = "abundance fitness"
obsvalue = -0.044

[[record]]
chainsequence = "MSAKKSPGELKGIFEKYAAKEGDPNQLSKEELKLLLQTEFPSLLKGPSTLDELFEELDKNGDGEVSFEEFQVLVKKISQ"
endpointlabel = "abundance fitness"
obsvalue = -0.049

[[record]]
chainsequence = "MSAKKSPEELKGIFEKYAAKEGDPNQLSKEELKLLLQTEFPSLLKGPKTLDELFEELDKNGDGEVSFEEFQVLVKKISQ"
endpointlabel = "abundance fitness"
obsvalue = 0.055

[[record]]
chainsequence = "MSAKKSPEELKGIFEKYAAKEGDPNQLSKEELKLLHQTEFPSLLKGPSTLDELFEELDKNGDGEVSFEEFQVLVKKISQ"
endpointlabel = "abundance fitness"
obsvalue = -1.08

[[record]]
chainsequence = "MSAKKSPEELKGIFENYAAKEGDPNQLSKEELKLLLQTEFPSLLKGPSTLDELFEELDKNGDGEVSFEEFQVLVKKISQ"
endpointlabel = "abundance fitness"
obsvalue = -0.07

